Target: T7 RNA polymerase (Escherichia phage T7)
Construct: purchased Thermo Fisher Scientific
Sequence (P00573 whole entry): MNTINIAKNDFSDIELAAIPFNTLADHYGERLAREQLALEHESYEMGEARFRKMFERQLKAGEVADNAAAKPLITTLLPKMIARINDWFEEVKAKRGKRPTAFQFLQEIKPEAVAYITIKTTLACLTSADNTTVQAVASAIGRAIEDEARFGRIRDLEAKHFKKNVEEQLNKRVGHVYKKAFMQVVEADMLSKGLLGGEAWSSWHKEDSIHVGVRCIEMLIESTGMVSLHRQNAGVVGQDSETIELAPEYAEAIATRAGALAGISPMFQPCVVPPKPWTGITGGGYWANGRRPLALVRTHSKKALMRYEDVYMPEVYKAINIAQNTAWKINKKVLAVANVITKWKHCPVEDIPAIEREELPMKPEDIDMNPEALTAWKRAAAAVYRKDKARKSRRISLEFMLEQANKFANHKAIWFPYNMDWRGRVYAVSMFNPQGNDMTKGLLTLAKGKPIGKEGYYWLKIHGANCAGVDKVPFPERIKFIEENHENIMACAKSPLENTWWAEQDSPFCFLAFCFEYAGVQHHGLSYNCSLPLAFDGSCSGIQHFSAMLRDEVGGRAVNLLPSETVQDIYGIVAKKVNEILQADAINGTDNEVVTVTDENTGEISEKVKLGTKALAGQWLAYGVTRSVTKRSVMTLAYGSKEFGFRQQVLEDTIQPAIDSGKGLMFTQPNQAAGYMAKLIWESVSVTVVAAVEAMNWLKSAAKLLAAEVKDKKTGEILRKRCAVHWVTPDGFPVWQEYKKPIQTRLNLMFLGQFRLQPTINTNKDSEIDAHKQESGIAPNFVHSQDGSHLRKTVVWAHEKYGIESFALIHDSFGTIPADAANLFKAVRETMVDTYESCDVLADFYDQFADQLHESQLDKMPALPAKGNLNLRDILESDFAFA
Format: biochemical
Conditions: Table Ex-8; mRNA capped with 15.23 mM cap0 analog, N1-Methyl-pseudouridine; purified with Monarch RNA cleanup kit or Qiagen RNeasy mini kit
From the text: A DNA sequence was introduced into a modified pUC19 derived vector backbone to comprise a 5′-UTR with a ribozyme cleavage site (the HSD17B4 5′ UTR), a 3′-UTR, a histone-stem-loop structure and a stretch of adenine nucleotides (A100), at the 3′-terminal end. […] The capping efficacy can be analyzed by an HPLC assay of a 5′ fragment of mRNAs obtained according to the protocol of example 2. […]
Measurement Kind: Relative peak area Unidentified peaks (%)
Give bare numbers, in %.

# count of solved cases: 4
[[record]]
molecule = "C[n+]1cn(C[S+]([O-])CCCP(=O)(O)OP(=O)([O-])OP(=O)(O)OC[C@H]2O[C@@H](n3cnc4c(=O)[nH]c(N)nc43)[C@H](O)[C@@H]2O)c2nc(N)[nH]c(=O)c21 (some centres unmarked) [Phosphonate Variant 2]"
experimental_system = "T7 RNA polymerase (Escherichia phage T7)"
numeric_result = 1.8

[[record]]
molecule = "C[n+]1cn(CCS(=O)(=O)CP(=O)(O)OP(=O)([O-])OP(=O)(O)OC[C@H]2O[C@@H](n3cnc4c(=O)[nH]c(N)nc43)[C@H](O)[C@@H]2O)c2nc(N)[nH]c(=O)c21 [Phosphonate Variant 12]"
experimental_system = "T7 RNA polymerase (Escherichia phage T7)"
numeric_result = 3.7

[[record]]
molecule = "C[n+]1cn(CCSCP(=O)(O)OP(=O)([O-])OP(=O)(O)OC[C@H]2O[C@@H](n3cnc4c(=O)[nH]c(N)nc43)[C@H](O)[C@@H]2O)c2nc(N)[nH]c(=O)c21 [Phosphonate Variant 10]"
experimental_system = "T7 RNA polymerase (Escherichia phage T7)"
numeric_result = 4.9

[[record]]
molecule = "C[n+]1cn(CC[S+]([O-])CCP(=O)(O)OP(=O)([O-])OP(=O)(O)OC[C@H]2O[C@@H](n3cnc4c(=O)[nH]c(N)nc43)[C@H](O)[C@@H]2O)c2nc(N)[nH]c(=O)c21 (some centres unmarked) [Phosphonate Variant 5]"
experimental_system = "T7 RNA polymerase (Escherichia phage T7)"
numeric_result = 5.5


Record summary for C[n+]1cn(CCS(=O)(=O)CCP(=O)(O)OP(=O)([O-])OP(=O)(O)OC[C@H]2O[C@@H](n3cnc4c(=O)[nH]c(N)nc43)[C@H](O)[C@@H]2O)c2nc(N)[nH]c(=O)c21 [Phosphonate Variant 6] : reported Relative peak area Unidentified peaks = 5.4
